Origin of the recorded values: the supplement of paper PMC10567573

B1: TRIM43 (parent)
chain: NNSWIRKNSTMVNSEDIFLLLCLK

variants of: B1; assay: protein stability index of a GFP-peptide fusion (GPS, HEK-293T) (PSI 1-6); higher = more stable; details: c terminus: a fixed tail appended;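 note: lentivirally expressed fusions sorted by FACS into six bins by GFP to DsRed ratio, PSI derived from sequencing read proportions per bin multiplied by bin number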
Label scheme for protein stability index: lower than 2 is n, 2 and above is y.

Query :: Is the recorded value of protein stability index equal to or greater than 2 for this variant? NNSWIRKNSTMVNSEDIYLLLCLK [F18Y]
Result :: y

Query :: Threshold query (protein stability index >= 2) on NNSWIRKNSTIVNSEDIFLLLCLK [M11I]
Result :: n

Query :: I'd appreciate it if you could say whether NNSWIGKNSTMVNSEDIFLLLCLK [R6G] has protein stability index at least equal to 2.
Result :: y

Query :: Tell me whether protein stability index is at least 2 here: NNSWIRKNSTMVNSEDWFLLLCLK [I17W]
Result :: y

Query :: Reported protein stability index reaches at least 2 for WNSWIRKNSTMVNSEDIFLLLCLK [N1W] ?
Result :: y

Query :: Is protein stability index for NNSWIRKNSTMVNSEDIFLLSCLK [L21S] at or above 2?
Result :: y

Query :: Answer whether protein stability index of NNSWIRKNSTMVNKEDIFLLLCLK [S14K] is greater than or equal to 2.
Result :: y

Query :: Record NNSWIRKNSTMVNSEDIGLLLCLK [F18G] ; criterion: protein stability index no lower than 2. Met?
Result :: n

Query :: Hello, I need to know if NNSWIRKNSTMVNSEDIFLLDCLK [L21D] has measured protein stability index not below 2. Thanks!
Result :: n

Query :: Quick check, protein stability index >= 2? NNSWIRKNSTSVNSEDIFLLLCLK [M11S]
Result :: y

Query :: Please indicate if the recorded protein stability index for NNWWIRKNSTMVNSEDIFLLLCLK [S3W] meets or exceeds 2.
Result :: y

Query :: I'd appreciate it if you could say whether NNSWIRKNSTMVNSEDIFLLHCLK [L21H] has protein stability index at least equal to 2.
Result :: y

Query :: Please check the record NNSWIRANSTMVNSEDIFLLLCLK [K7A] and state if its protein stability index is at or above 2.
Result :: y

Query :: Given NNSWIRKDSTMVNSEDIFLLLCLK [N8D] , state whether its protein stability index is at least 2.
Result :: y

Query :: Please tell me: is the variant NNSWIRKNSTEVNSEDIFLLLCLK [M11E] at or over 2 in terms of protein stability index?
Result :: n

Query :: Given the entry NNSWIRKNSTMVNSEDIFILLCLK [L19I] , answer whether its protein stability index meets or surpasses 2.
Result :: y

Query :: In plain terms: is recorded protein stability index at least 2 for NNSWIRKNCTMVNSEDIFLLLCLK [S9C] ?
Result :: y

Query :: Record NNSWIPKNSTMVNSEDIFLLLCLK [R6P] ; criterion: protein stability index no lower than 2. Met?
Result :: y

Query :: protein stability index >= 2 for NNSWIRKNSTMVNSEDIFLGLCLK [L20G] ?
Result :: n

Query :: Is it the case that NNSWIRKNSTMVNSTDIFLLLCLK [E15T] has protein stability index reaching or exceeding 2?
Result :: n

Query :: Hi, just wondering whether LNSWIRKNSTMVNSEDIFLLLCLK [N1L] shows protein stability index of 2 or higher.
Result :: y

Query :: # bool: protein stability index of NNSWIRKNSTMVNSEDIFQLLCLK [L19Q] >= 2
Result :: y

Query :: Would you say NNSWIRKNSTMVNPEDIFLLLCLK [S14P] shows protein stability index at minimum 2?
Result :: y

Query :: Check if protein stability index >= 2 (inclusive). Item: NNSWIRKNSEMVNSEDIFLLLCLK [T10E]
Result :: y

Query :: Item NNSWIRKNSIMVNSEDIFLLLCLK [T10I] with protein stability index of 2 or above?
Result :: y

Query :: Could you verify whether the entry NNSWIRKNSTMVNSEDIFLLLCLR [K24R] shows protein stability index of no less than 2?
Result :: y

Query :: For this variant, is measured protein stability index 2 or higher? NNSWIRKNSTMVNAEDIFLLLCLK [S14A]
Result :: y

Query :: Is protein stability index for NNSWIRKNSTMVNSEDIFLLLCHK [L23H] at or above 2?
Result :: y

Query :: Decide: is the reported value of protein stability index for NNSVIRKNSTMVNSEDIFLLLCLK [W4V] equal to or greater than 2?
Result :: y

Query :: Identify whether the reported protein stability index of the following variant is 2 or greater: NNSWIRKNSTMVNSEDIFLLLHLK [C22H]
Result :: y

Query :: Record NNSWIRKNSTMVNSEDIFLALCLK [L20A] ; criterion: protein stability index no lower than 2. Met?
Result :: y

Query :: Exam item: decide whether the reported protein stability index for NNSWIRKNSTMVNSEDIILLLCLK [F18I] is at least 2.
Result :: y

Query :: Evaluate NNSWIRKNSTMVNSCDIFLLLCLK [E15C] : protein stability index at minimum 2?
Result :: y

Query :: Check this variant for protein stability index at or above 2: NNSWIRKNSTMVNSFDIFLLLCLK [E15F]
Result :: y

Query :: Decide: is the reported value of protein stability index for NNSWARKNSTMVNSEDIFLLLCLK [I5A] equal to or greater than 2?
Result :: y

Query :: Can NNSWIRKNSMMVNSEDIFLLLCLK [T10M] be said to have protein stability index at or above 2?
Result :: y

Query :: Determine whether this variant has protein stability index no lower than 2: NNSWIRKNSTMVNDEDIFLLLCLK [S14D]
Result :: y

Query :: Does protein stability index meet or surpass 2 for NNSWIRKNSTMVNSEDIFCLLCLK [L19C] ?
Result :: y

Query :: Could you tell me if the measured protein stability index of NNSWIRKNSTMVNSEDIFRLLCLK [L19R] reaches 2 or more?
Result :: n

Query :: Could you please find out whether NNSLIRKNSTMVNSEDIFLLLCLK [W4L] has protein stability index that meets 2 or exceeds it?
Result :: n

Query :: Quick check: does NLSWIRKNSTMVNSEDIFLLLCLK [N2L] have protein stability index greater than or equal to 2?
Result :: y

Query :: Has NNSWIRKNSTMVNSEDIWLLLCLK [F18W] a recorded protein stability index greater than or equal to 2?
Result :: y

Query :: Could you verify whether the entry NNSWIRKNSTMVNSEDFFLLLCLK [I17F] shows protein stability index of no less than 2?
Result :: y

Query :: Decide: is the reported value of protein stability index for NNSWIRKNSTMVNSEDIFLRLCLK [L20R] equal to or greater than 2?
Result :: n

Query :: Quick check: does NGSWIRKNSTMVNSEDIFLLLCLK [N2G] have protein stability index greater than or equal to 2?
Result :: y

Query :: Could you verify whether the entry NNSWIRKNSTMVNSEDIFLLLCLP [K24P] shows protein stability index of no less than 2?
Result :: y

Query :: I'd appreciate it if you could say whether NNSWIRKNSTMVNSEDIFLLLCTK [L23T] has protein stability index at least equal to 2.
Result :: y

Query :: Does the reported protein stability index for NNSWIRKNRTMVNSEDIFLLLCLK [S9R] fall at or above the 2 mark?
Result :: y

Query :: Check the entry NNSWIRKNSTMVNSEDIDLLLCLK [F18D] : does protein stability index equal or exceed 2?
Result :: y

Query :: Tell me whether protein stability index is at least 2 here: NNSWIRKNSTMVNSEDIFLELCLK [L20E]
Result :: n

Query :: hey, is protein stability index for this one >= 2? NNSWIRKNSTMVNSEDIPLLLCLK [F18P]
Result :: n

Query :: Form field: protein stability index at least 2? Entry: NNSWIRKNSTMVNSELIFLLLCLK [D16L]
Result :: y

Query :: Quick check: does NNSWIRKNSTMVNCEDIFLLLCLK [S14C] have protein stability index greater than or equal to 2?
Result :: y

Query :: API: above_or_equal(metric=protein stability index, cutoff=2) for item NNSWIRKNSTMVNTEDIFLLLCLK [S14T]
Result :: y

Query :: State whether the measured protein stability index reaches 2, counting equality as reaching it, for NNSAIRKNSTMVNSEDIFLLLCLK [W4A]
Result :: n

Query :: # bool: protein stability index of NNSWIRKNSTMVNSEDIFTLLCLK [L19T] >= 2
Result :: n

Query :: Check this variant for protein stability index at or above 2: NNSWIRKNSTFVNSEDIFLLLCLK [M11F]
Result :: y

Query :: hey, is protein stability index for this one >= 2? NNSWIRKNSTMVNSEDIFLLLTLK [C22T]
Result :: y

Query :: Quick check: does NDSWIRKNSTMVNSEDIFLLLCLK [N2D] have protein stability index greater than or equal to 2?
Result :: n

Query :: Could you please find out whether NNSWIRKNSTQVNSEDIFLLLCLK [M11Q] has protein stability index that meets 2 or exceeds it?
Result :: y

Query :: Please check the record NNSWIRKNSTMVVSEDIFLLLCLK [N13V] and state if its protein stability index is at or above 2.
Result :: y

Query :: Entry NNHWIRKNSTMVNSEDIFLLLCLK [S3H] : is its protein stability index no less than 2?
Result :: y

Query :: For this variant, is measured protein stability index 2 or higher? NNSWIWKNSTMVNSEDIFLLLCLK [R6W]
Result :: y

Query :: Determine whether measured protein stability index meets or exceeds 2 for NVSWIRKNSTMVNSEDIFLLLCLK [N2V]
Result :: y

Query :: Form field: protein stability index at least 2? Entry: NNAWIRKNSTMVNSEDIFLLLCLK [S3A]
Result :: y

Query :: Hello, I need to know if NNSWIRKNSWMVNSEDIFLLLCLK [T10W] has measured protein stability index not below 2. Thanks!
Result :: y

Query :: Evaluate NNSWIRKNSLMVNSEDIFLLLCLK [T10L] : protein stability index at minimum 2?
Result :: y

Query :: Does the reported protein stability index for NNSWIRKNSTMVNSEDISLLLCLK [F18S] fall at or above the 2 mark?
Result :: n

Query :: Please tell me: is the variant NNSWIRVNSTMVNSEDIFLLLCLK [K7V] at or over 2 in terms of protein stability index?
Result :: y

Query :: Please tell me: is the variant NNSWIRKNSCMVNSEDIFLLLCLK [T10C] at or over 2 in terms of protein stability index?
Result :: y

Query :: Kindly determine if protein stability index recorded for NNSWIRKNSTMVNSEDIFLLLSLK [C22S] is above or exactly 2.
Result :: y

Query :: Dear colleague, could you confirm whether NNSWIRKNSTTVNSEDIFLLLCLK [M11T] has protein stability index at or above 2?
Result :: y

Query :: Is it the case that NNSWIRKNSTMVNSEKIFLLLCLK [D16K] has protein stability index reaching or exceeding 2?
Result :: y

Query :: Textbook exercise: given the entry NNSWIRKNSTMVNSSDIFLLLCLK [E15S] , state whether its protein stability index is greater than or equal to 2.
Result :: y

Query :: Textbook exercise: given the entry NNSWIRKNSTMRNSEDIFLLLCLK [V12R] , state whether its protein stability index is greater than or equal to 2.
Result :: y

Query :: Record NNSWWRKNSTMVNSEDIFLLLCLK [I5W] ; criterion: protein stability index no lower than 2. Met?
Result :: y

Query :: Please check the record NNSWIRKNSTMVRSEDIFLLLCLK [N13R] and state if its protein stability index is at or above 2.
Result :: y

Query :: Is it the case that NNSWIRKNSTMVNSEDIFLLLQLK [C22Q] has protein stability index reaching or exceeding 2?
Result :: y

Query :: Confirm if protein stability index reported for the variant NNRWIRKNSTMVNSEDIFLLLCLK [S3R] is 2 or above.
Result :: y

Query :: Is protein stability index for HNSWIRKNSTMVNSEDIFLLLCLK [N1H] at or above 2?
Result :: y

Query :: // inclusive: protein stability index at least 2? input: NNSWIRKNSTMVLSEDIFLLLCLK [N13L]
Result :: y

Query :: Test whether the variant NNSWIRKNSTMVNSEDICLLLCLK [F18C] records protein stability index of 2 or higher.
Result :: y

Query :: Reported protein stability index at or above 2? NNSWIRKNSTMVNSEDRFLLLCLK [I17R]
Result :: y

Query :: Please check the record NNSWIRKNSTMVNSEDIFLYLCLK [L20Y] and state if its protein stability index is at or above 2.
Result :: y

Query :: Exam item: decide whether the reported protein stability index for NNEWIRKNSTMVNSEDIFLLLCLK [S3E] is at least 2.
Result :: y

Query :: // inclusive: protein stability index at least 2? input: NNSWIRKNSTMVNSEDIFMLLCLK [L19M]
Result :: y

Query :: Tell me whether protein stability index is at least 2 here: NNSWIMKNSTMVNSEDIFLLLCLK [R6M]
Result :: y

Query :: In plain terms: is recorded protein stability index at least 2 for NNSWIRKNSTMVNNEDIFLLLCLK [S14N] ?
Result :: y

Query :: Determine whether this variant has protein stability index no lower than 2: NNSWIRKNSTMVNSEDIALLLCLK [F18A]
Result :: n

Query :: Determine whether this variant has protein stability index no lower than 2: NNSWIRKNSTVVNSEDIFLLLCLK [M11V]
Result :: y
